Test system: Primary human AEC2s
assay comment: AEC2 proliferation assay (Ki67 high content imaging)
Assay type: cell-based
experimental conditions: FIG. 1B, 1C; read-out: EC50, AEC2 proliferation (ReFRAME screen hits)
Description: To identify small molecules capable of proliferating AEC2s, as disclosed herein, we first established a culture system with primary human small airway epithelial cells (SAECs) from a commercial source. AEC2 proliferation assay. Primary human AEC2s were plated at a density of 1,500 cells per well in black 384-well plates (Greiner) coated with 10 ug/mL. Laminin (Life Technologies) in 50 μL of Small Airway Epithelial Cell Growth Medium (Lonza) without EGF, retinoic acid and with 5% BPE. […]
pEC50: −log10 of the molar value.
assay endpoint: pEC50

Identify the reported pEC50 for the following entry. N#Cc1ccc(NCCNCC(=O)N2CCC[C@H]2C#N)nc1 [NVP-728]
~6.30

* * *

Tested on: Primary human AEC2s
assay comment: AEC2 proliferation assay (Ki67 high content imaging)
Assay type: cell-based
experimental conditions: Homo sapiens; Table 5; read-out: AEC2 proliferation
Experimental: To identify small molecules capable of proliferating AEC2s, as disclosed herein, we first established a culture system with primary human small airway epithelial cells (SAECs) from a commercial source. AEC2 proliferation assay. Primary human AEC2s were plated at a density of 1,500 cells per well in black 384-well plates (Greiner) coated with 10 ug/mL. Laminin (Life Technologies) in 50 μL of Small Airway Epithelial Cell Growth Medium (Lonza) without EGF, retinoic acid and with 5% BPE. […]
Please respond with reported EC50 for every item in the list.
Give the number; nM is assumed, so skip it.

Output EC50 of `CS(=O)(=O)n1cc2c(n1)CN([C@H]1CO[C@H](c3cc(F)ccc3F)[C@@H](N)C1)C2`
43

Given the molecule `Cn1c(=O)cc(N2CCC[C@@H](N)C2)n(Cc2cc(F)ccc2C#N)c1=O` , write its reported EC50.
67

Fill in reported EC50 for this entry: `N#C[C@@H]1CCCN1C(=O)CNC12CC3C[C@@H](C1)C[C@@](O)(C3)C2`
160

Output EC50 of `N[C@@H](CC(=O)N1CCn2c(nnc2C(F)(F)F)C1)Cc1cc(F)c(F)cc1F`
560

Output EC50 of `N#C[C@@H]1C[C@@H]2C[C@@H]2N1C(=O)[C@@H](N)C12CC3C[C@@H](C1)C[C@@](O)(C3)C2`
650

Please look at this molecule and report its EC50: `O=C(CN[C@@H]1CCNC1)N1CCC[C@H]1B(O)O`
280

Fill in reported EC50 for this entry: `Cc1cc2ncc(C(=O)NCC(C)(C)NCC(=O)N3CCC[C@H]3C#N)cn2n1`
110

Please indicate EC50 recorded for `N[C@@H](CC(=O)N1CCc2c(nc(C(F)(F)F)nc2C(F)(F)F)C1)CN1CC(F)(F)CCC1=O`
220

# return recorded EC50 for entry `Cn1c(=O)cc(N2CCC[C@@H](N)C2)n(Cc2ccccc2C#N)c1=O`
110

* * *

assay comment: IT pharmacokinetics of dutogliptin (1) and dutogliptin boronate (15)
Type: in vivo, mouse
experimental conditions: mouse, in vivo, 4.4 mg/kg, Lung concentration of dutogliptin, Mean
assay endpoint: concentration at 7 h (ng/g)
All answers are understood in ng/g, so give the number only.

Please indicate concentration at 7 h recorded for `O=C(CN[C@@H]1CCNC1)N1CCC[C@H]1B(O)O`
4560
